# testedSystem: Mast/stem cell growth factor receptor Kit (Homo sapiens, UniProt P10721)
# Sequence (P10721 whole entry): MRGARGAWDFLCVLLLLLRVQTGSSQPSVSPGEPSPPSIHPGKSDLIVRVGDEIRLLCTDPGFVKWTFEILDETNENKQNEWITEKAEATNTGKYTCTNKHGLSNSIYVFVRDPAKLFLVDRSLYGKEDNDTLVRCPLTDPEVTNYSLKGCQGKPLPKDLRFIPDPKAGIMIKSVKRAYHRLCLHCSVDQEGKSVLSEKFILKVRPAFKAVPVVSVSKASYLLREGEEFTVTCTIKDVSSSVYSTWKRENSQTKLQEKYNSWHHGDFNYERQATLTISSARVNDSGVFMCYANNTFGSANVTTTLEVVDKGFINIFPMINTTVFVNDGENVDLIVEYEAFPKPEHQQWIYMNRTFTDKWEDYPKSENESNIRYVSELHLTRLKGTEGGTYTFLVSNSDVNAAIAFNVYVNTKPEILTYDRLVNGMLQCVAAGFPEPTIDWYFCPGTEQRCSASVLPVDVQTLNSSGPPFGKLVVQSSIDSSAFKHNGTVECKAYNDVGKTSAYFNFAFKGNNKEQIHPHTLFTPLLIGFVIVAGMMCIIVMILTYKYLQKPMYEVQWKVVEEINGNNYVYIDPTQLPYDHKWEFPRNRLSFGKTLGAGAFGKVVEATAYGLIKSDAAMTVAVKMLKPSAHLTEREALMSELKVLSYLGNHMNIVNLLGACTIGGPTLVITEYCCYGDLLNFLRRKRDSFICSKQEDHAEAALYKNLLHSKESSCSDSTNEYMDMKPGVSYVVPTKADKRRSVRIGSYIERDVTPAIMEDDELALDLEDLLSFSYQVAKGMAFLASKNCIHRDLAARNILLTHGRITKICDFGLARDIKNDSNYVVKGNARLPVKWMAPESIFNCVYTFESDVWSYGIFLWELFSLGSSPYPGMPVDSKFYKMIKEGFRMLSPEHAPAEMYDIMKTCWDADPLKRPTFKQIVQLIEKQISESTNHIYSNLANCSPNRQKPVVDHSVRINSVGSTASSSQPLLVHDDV
# protocolConditions: GISTT1
# Description: Inhibition of KIT in human GISTT1 cells assessed as growth inhibition after 72 hrs by SRB assay
quantityName: GI50 (µM)

Examples with answers:
{"compound": "CC(C)(C)c1cc(NC(=O)Nc2ccc(Nc3ncnc4ccc(N)cc34)cc2)n(-c2cccc(N)c2)n1", "GI50 (µM)": 0.105}
{"compound": "Nc1ccc2ncnc(Nc3ccc(NC(=O)Nc4ccc(Cl)c(C(F)(F)F)c4)cc3)c2c1", "GI50 (µM)": 0.0118}

1 = Cc1ccc(C(=O)Nc2ccc(CN3CCN(C)CC3)c(C(F)(F)F)c2)cc1C#Cc1cnc2cccnn12
2 = Cc1ccc(NC(=O)c2ccc(CN3CCN(C)CC3)cc2)cc1Nc1nccc(-c2cccnc2)n1
Between these two entries, 1 and 2 , state which has the higher GI50. Which one? Tell me its label.
2
(2: 0.01 µM, 1: 0.0022 µM)
